assay: Plasma concentrations of MIV-711 in ACLT rabbits (LC-MS/MS); type: in vivo; conditions: rabbit plasma, single oral administration 30 µmol/kg
assay-endpoint: Cmax (nM)
Write the answer as a number in nM, unit excluded.

Identify the reported Cmax for the following entry. C#C[C@@H]1CN(C(=O)[C@H](CC(C)C)NC(=O)c2ccc(-c3nc(N4CCN(C)CC4)sc3F)cc2)[C@@H]2C(=O)CO[C@H]12 [MIV-711]
250

---

experiment: Plasma concentrations of MIV-711 in ACLT rabbits (LC-MS/MS); assay type: in vivo; settings: rabbit plasma, single oral administration 100 µmol/kg
assay-endpoint: Cmax (nM)
Write the answer as a number in nM, unit excluded.

Identify the reported Cmax for the following entry. C#C[C@@H]1CN(C(=O)[C@H](CC(C)C)NC(=O)c2ccc(-c3nc(N4CCN(C)CC4)sc3F)cc2)[C@@H]2C(=O)CO[C@H]12
1800

Cited source: paper PMC5845353
